System: c-Src
Experiment: phosphorylation enrichment, bacterial display (enrichment ratio); higher = better substrate or ligand; peptides without Tyr show the background;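 further: 11-residue human phosphosite peptides and single-mutation variants displayed on the E. coli surface, counted by deep sequencing, each peptide's frequency after selection divided by its frequency in the unselected input library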;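 further: frequency after pTyr selection over input frequency; kinase dosed for 20-30% of maximal phosphorylation in three min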
metric: phosphorylation enrichment

entry_sequence="WVYNHYRWIIW [BRCA2_Y2624]" metric="phosphorylation enrichment" recorded_number=0.415
entry_sequence="VSAPEYGPKLK [TBC1D14_Y46_L41V]" metric="phosphorylation enrichment" recorded_number=0.369
entry_sequence="PGIRMYRVQYN [LRFN1_Y454_Q455R]" metric="phosphorylation enrichment" recorded_number=0.473
entry_sequence="RGRSTYYWPRP [GAGE12J_Y9]" metric="phosphorylation enrichment" recorded_number=0.494
entry_sequence="DAAEDYAEGVC [DHODH_Y194_R199C]" metric="phosphorylation enrichment" recorded_number=0.559
entry_sequence="KKYPDYIQSAM [SGMS2_Y59_I62S]" metric="phosphorylation enrichment" recorded_number=0.428
entry_sequence="PGLRGYPGLSG [COL4A2_Y306]" metric="phosphorylation enrichment" recorded_number=0.674

###

System: c-Abl (mouse)
Assay: phosphorylation enrichment, bacterial display (enrichment ratio); higher = better substrate or ligand; peptides without Tyr show the background
metric: phosphorylation enrichment

entry_sequence="NARGLYFKLHN [GATA2_Y376_C373R_YF]" recorded_number=0.896
entry_sequence="GYYDLYGGEKF [PTPN11_Y66_D61G]" recorded_number=0.68
entry_sequence="KTNVSYFGALD [CACNB4_Y103_C104F]" recorded_number=0.59
entry_sequence="GFILMYDITNK [RAB3C_Y110_E115K]" recorded_number=1.21
entry_sequence="LGRKLYSIAAP [ABHD12_Y345]" recorded_number=0.892
entry_sequence="EMTAEYTCTRK [ACAD9_Y325_A326T]" recorded_number=0.636
entry_sequence="LARNMYDKEYY [MET_Y1230_D1228N]" recorded_number=0.565

###

Target: Fyn (UniProt P06241)
Sequence (P06241 whole entry, looked up): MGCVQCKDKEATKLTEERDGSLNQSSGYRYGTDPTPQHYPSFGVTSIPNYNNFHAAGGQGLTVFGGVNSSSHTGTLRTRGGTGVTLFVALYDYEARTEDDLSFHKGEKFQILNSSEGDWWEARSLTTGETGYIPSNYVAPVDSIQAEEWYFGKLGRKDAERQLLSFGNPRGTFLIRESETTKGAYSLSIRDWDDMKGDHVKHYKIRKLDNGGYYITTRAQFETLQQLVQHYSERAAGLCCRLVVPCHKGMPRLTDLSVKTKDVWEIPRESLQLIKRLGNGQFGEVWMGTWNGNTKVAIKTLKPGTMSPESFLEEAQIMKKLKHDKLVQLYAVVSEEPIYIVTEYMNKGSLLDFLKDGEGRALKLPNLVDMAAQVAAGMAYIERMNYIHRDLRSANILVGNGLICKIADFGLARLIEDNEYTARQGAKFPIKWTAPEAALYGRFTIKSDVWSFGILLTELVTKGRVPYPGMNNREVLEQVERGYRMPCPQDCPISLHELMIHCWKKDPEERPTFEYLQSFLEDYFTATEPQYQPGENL
Assay: phosphorylation enrichment, bacterial display (enrichment ratio); higher = better substrate or ligand; peptides without Tyr show the background
metric: phosphorylation enrichment

entry_sequence="SDLTDYLMKIL [ACTA1_Y190_R185S]" recorded_number=0.535
entry_sequence="QRASDYFSQQM [GBP6_Y333_A331S_YF]" recorded_number=0.662
entry_sequence=ENAGYYFQVSA recorded_number=0.527
entry_sequence="HGEAYYSEVKP [PAK5_Y182]" recorded_number=1.96
entry_sequence="TQNAVYSAANY [DDX5_Y535_G533A]" recorded_number=8.89
entry_sequence="PIPAAYNKYDQ [CDC73_Y290_R292K]" recorded_number=0.46
entry_sequence="VPLLEYFRDIF [CDAN1_Y712_YF]" recorded_number=0.543
entry_sequence="QRVLLYVRRET [GRHL3_Y518]" recorded_number=0.699
entry_sequence="HAVFVYDICHV [TWNK_Y508_YF]" recorded_number=4.27
entry_sequence="KNEKVYTRHGV [FLOT1_Y56_S52N]" recorded_number=0.355
entry_sequence="MHDSNCVSKGS [PDGFRA_Y849_Y849C]" recorded_number=0.387
entry_sequence="RDLHTYIMPAH [PNMT_Y256_R254H]" recorded_number=1.19
entry_sequence="DDERGYRRVRC [GIGYF2_Y268_S273C]" recorded_number=0.529
entry_sequence="KIVQDYLEKFY [MMP8_Y36_T32I]" recorded_number=0.452
entry_sequence="KLMTEYKKRKQ [ARFGEF3_Y2029]" recorded_number=0.418
entry_sequence="MGSYNYLGFPR [SPTLC2_Y178_A182P]" recorded_number=0.511
entry_sequence="RLGDLYKEEMR [VIM_Y150_E151K]" recorded_number=0.756
entry_sequence="PTTKTYFPHFA [HBA1_Y43_D48A]" recorded_number=0.798
entry_sequence="NNKKDYFDMFE [SLC26A3_Y526_K521N_YF]" recorded_number=0.415
entry_sequence="IKNSGYISRFL [EIF2AK3_Y585_YF]" recorded_number=0.348
entry_sequence="LNARHYGGLTG [PGAM2_Y92_E89A]" recorded_number=0.301
entry_sequence="DFPMGYPSYLA [TBCK_Y153_I151M]" recorded_number=0.443
entry_sequence="SLQFEYVHFGG [CDC14A_Y591_S589F_YF]" recorded_number=0.548
entry_sequence="KFANSYRMEPL [TCTE3_Y87]" recorded_number=0.47
entry_sequence="HNLDYYKETTN [FGFR3_Y648_K650E]" recorded_number=0.597
entry_sequence="KKKKQYKGKFL [CASK_Y708_D710G_YF]" recorded_number=0.532
entry_sequence="QRRYLYYYSYL [PTEN_Y176_V175L]" recorded_number=1.62
entry_sequence="KASGKYFAMKI [AKT3_Y173_YF]" recorded_number=0.344
entry_sequence="TYGQVYKGPHV [TNIK_Y40_R43P]" recorded_number=12.4
entry_sequence="KFSNQYKATIG [RAB7A_Y37]" recorded_number=0.41
entry_sequence=KPGVNYYFQVS recorded_number=0.573
entry_sequence="FEEDSYVKRSQ [RET_Y905_YF]" recorded_number=0.523
entry_sequence="TSIGNYYKPWF [DHCR24_Y299_N294T]" recorded_number=0.59
entry_sequence="PKKKQYTSIHH [APP_Y728_L723P]" recorded_number=0.757
entry_sequence="DLKFHYDNTAG [KDR_Y1214_P1210L]" recorded_number=0.484
entry_sequence="IIQRAYRRHLL [SCN1A_Y1926]" recorded_number=0.509
entry_sequence="VASSLYDIFAR [GLB1_Y294_L297F]" recorded_number=6.66
entry_sequence="GLDGSYLPRDS [SH2D1A_Y29_L31P]" recorded_number=0.356
entry_sequence="FTNRNYDLDYD [MYC_Y12]" recorded_number=0.607
entry_sequence="CTTIHYNYMFN [TP53_Y234_C238F]" recorded_number=0.555
entry_sequence="CTTIHYNFMGN [TP53_Y234_C238G_YF]" recorded_number=0.464
entry_sequence="RLLRGYDQLAF [HLA-C_Y137_S140L_YF]" recorded_number=0.435
entry_sequence="RQQEDYLLFKQ [RARRES1_Y159_YF]" recorded_number=0.68
entry_sequence="TWEKPYECVQC [ZNF24_Y335_G331W]" recorded_number=0.489
entry_sequence="NLAAQYTTVGR [SGSH_Y240_D235N]" recorded_number=0.401
entry_sequence="CVVVPYEPPEV [TP53_Y220_S215C]" recorded_number=0.568
entry_sequence="PESCFYKESWL [IQGAP2_Y630_L629F]" recorded_number=0.616
entry_sequence="AQESNYRLLRQ [SLC20A2_Y377_R382Q]" recorded_number=0.391
entry_sequence="KPRKLYTIKKP [BRD2_Y715_P714L]" recorded_number=0.375
entry_sequence="TVVVPYEPPEV [TP53_Y220_S215T]" recorded_number=0.475
entry_sequence="RVQQIYSDSDL [MIB1_Y376]" recorded_number=4.75
entry_sequence="FTDGQYWIRGR [ACSF3_Y466_K462T]" recorded_number=0.422
entry_sequence="IQKWEYVPLGT [FAH_Y244_P249T]" recorded_number=0.475
entry_sequence="HICTAYKLVLA [DHCR24_Y190_E191K]" recorded_number=1.3
entry_sequence="RLLREYQELMN [KRT75_Y434]" recorded_number=0.746
entry_sequence="ALARKYHGGGG [HBB_Y146_H144R]" recorded_number=0.365
entry_sequence="FTDPFYDFEIE [ZC3H18_Y372_A368T_YF]" recorded_number=4.1

###

Molecular target: EPHB2 (UniProt P29323)
Sequence (P29323 whole entry, looked up): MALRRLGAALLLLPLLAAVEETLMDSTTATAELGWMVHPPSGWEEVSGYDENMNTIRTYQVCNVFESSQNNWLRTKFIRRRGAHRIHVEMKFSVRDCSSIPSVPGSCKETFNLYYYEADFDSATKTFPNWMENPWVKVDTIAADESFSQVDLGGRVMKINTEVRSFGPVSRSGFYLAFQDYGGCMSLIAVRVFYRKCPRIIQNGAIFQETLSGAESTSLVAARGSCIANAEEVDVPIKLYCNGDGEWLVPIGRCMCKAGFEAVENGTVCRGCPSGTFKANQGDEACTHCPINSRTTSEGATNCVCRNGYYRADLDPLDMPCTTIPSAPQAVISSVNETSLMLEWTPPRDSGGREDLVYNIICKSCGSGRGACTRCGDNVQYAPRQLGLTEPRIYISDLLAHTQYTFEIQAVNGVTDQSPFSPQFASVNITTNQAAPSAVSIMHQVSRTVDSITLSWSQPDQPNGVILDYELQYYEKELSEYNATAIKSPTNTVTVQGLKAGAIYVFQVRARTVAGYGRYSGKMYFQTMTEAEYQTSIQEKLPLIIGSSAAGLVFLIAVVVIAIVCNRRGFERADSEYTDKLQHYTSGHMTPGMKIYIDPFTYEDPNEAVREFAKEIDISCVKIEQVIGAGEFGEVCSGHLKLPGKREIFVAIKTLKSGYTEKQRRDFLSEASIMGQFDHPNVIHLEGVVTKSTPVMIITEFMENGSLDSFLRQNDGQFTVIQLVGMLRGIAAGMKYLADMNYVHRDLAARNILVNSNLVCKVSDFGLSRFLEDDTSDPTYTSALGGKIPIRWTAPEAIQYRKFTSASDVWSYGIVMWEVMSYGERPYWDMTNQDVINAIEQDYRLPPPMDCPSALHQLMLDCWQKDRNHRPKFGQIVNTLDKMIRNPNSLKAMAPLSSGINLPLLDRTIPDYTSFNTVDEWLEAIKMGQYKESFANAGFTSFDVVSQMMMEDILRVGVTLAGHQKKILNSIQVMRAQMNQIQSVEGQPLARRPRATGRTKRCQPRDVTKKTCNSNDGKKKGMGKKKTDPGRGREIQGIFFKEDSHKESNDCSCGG
Assay: phosphorylation enrichment, bacterial display (enrichment ratio); higher = better substrate or ligand; peptides without Tyr show the background
Respond with met for phosphorylation enrichment values of 0.7 and above, not met for values below.

entry_sequence="SFCFRYRCAAR [SUMF1_Y344_YF]" label="not met"
entry_sequence="NGLVAYKDGKL [PMM2_Y76]" label="not met"
entry_sequence="GVTLLYFGRDN [ADGRD1_Y85_Y89D_YF]" label="not met"
entry_sequence="ISIFFYAKGQP [MPZ_Y82_H81Y_YF]" label="not met"
entry_sequence="LDYNEYFRGLN [HPRT1_Y198_D201G]" label=met
entry_sequence="NVQIVYKPVDL [MAPT_Y627_S622N]" label="not met"
entry_sequence="LKEIRYPPFTD [ALDH3B2_Y362_H361R_YF]" label=met
entry_sequence="RFGKVYKGHLF [ROR2_Y488]" label=met
entry_sequence="MAFDRYVAICA [OR52J3_Y125_V128I]" label="not met"
entry_sequence="FGGRDYSLDEF [MYOF_Y1705_YF]" label="not met"
entry_sequence="YRKNTYNVKST [SYNE2_Y575_I574T]" label="not met"
entry_sequence="SFPREYGSQEG [RBM10_Y48_YF]" label="not met"
entry_sequence="LSGVIYVILRK [PMP22_Y153]" label="not met"
entry_sequence="SMGHRYIEVFR [HNRNPF_Y82_K87R]" label="not met"
entry_sequence="MKVPLYETPAG [PGM5_Y358_V357L]" label=met
entry_sequence="KSELAYEIFDK [MYOM2_Y1024]" label="not met"
entry_sequence="EAMPDYKKQLR [SPATA18_Y229_S227P]" label="not met"
entry_sequence="TGGLEYIVPLM [CLCN4_Y548]" label=met
entry_sequence="MILSAYALGGL [CPS1_Y590_R587L]" label="not met"
entry_sequence="CPFNLYAEQFS [HGD_Y40_L44F_YF]" label=met
entry_sequence="AQESNYRLLRQ [SLC20A2_Y377_R382Q]" label="not met"
entry_sequence="SSFSRYIMMPN [LEF1_Y114_G113R_YF]" label="not met"
entry_sequence=AKIDGYIISYR label="not met"
entry_sequence="CASQLCPRHKH [DCTN4_Y263_Y263C]" label="not met"
entry_sequence="LNPDGYKKAFE [CPXM2_Y427_E428K_YF]" label=met
entry_sequence="FGGTVCHSPVS [PRC1_Y511_Y511C]" label="not met"
entry_sequence="GFSDPYVKAFL [SYT3_Y470_S474F]" label="not met"
entry_sequence="SHNELYYEAAE [VANGL1_Y344_E347A]" label=met
